# assay-system: recombinant guanylate cyclase reporter cell line (Rattus norvegicus, UniProt P19686+P20595)
# Construct: expressed in transfected cells
# method-description: Action on recombinant guanylate cyclase reporter cell line
# Format: cell-based
# condition-label: in some cases mean values obtained from individual determinations
result-type: MEC (minimal effective concentration) (µM)
Give bare numbers, in µM.

Check out these entries, answers already filled in.
Cc1nc2c(OCc3cccc(Cl)c3Cl)cccn2c1C(=O)NCCC1(O)CCCC1 [Example 47]: 0.3
Cc1nc2c(OCc3c(F)cccc3F)cccn2c1C(=O)N[C@@H]1CCC[C@@H]1O [Example 37]: 0.3

Query: Suppose we examine the compound Cc1nc2c(OCc3c(F)cccc3F)cccn2c1C(=O)N[C@H]1CCC[C@@H]1O [Example 19] ; what MEC (minimal effective concentration) value has been reported?
Response: 1.0

###

# assay-system: recombinant guanylate cyclase reporter cell line (Rattus norvegicus, UniProt P19686+P20595)
# Construct: expressed in transfected cells
# method-description: Action on recombinant guanylate cyclase reporter cell line
# Assay type: cell-based
# condition-label: in some cases mean values obtained from individual determinations
Sorting guide: entries reporting MEC (minimal effective concentration) beneath 0.3 µM go in the T pile, the rest go in the F pile.

Sample answers from the record:
Cc1nc2c(OCC3CCCCC3)cccn2c1C(=O)N[C@@H](C)CO: T
CCCc1nc2c(OCC3CCCCC3)cccn2c1C(=O)N[C@@H](C)CO: F

Query: Quick check: MEC (minimal effective concentration) of CCCC[C@@H](NC(=O)c1c(C)nc2c(OCc3c(F)cccc3F)cccn12)C(O)C(F)(F)F (stereo partly drawn) [Example 141] under 0.3 µM?
Response: T

Query: Entry to check: Cc1nc2c(OCc3c(F)cccc3F)cccn2c1C(=O)NC1CCC(O)CC1 (racemic)
Response: F

Query: Entry to check: Cc1nc2c(OCc3c(F)cccc3F)cccn2c1C(=O)NC(CCCC(F)(F)F)C(C)(C)O (racemic) [Example 150]
Response: T

Query: Entry to check: Cc1cc(OCC2CC(F)(F)C2)c2nc(C)c(C(=O)NC(CCCC(F)(F)F)C(C)(C)O)n2c1 (racemic)
Response: F

###

# assay-system: recombinant guanylate cyclase reporter cell line (Rattus norvegicus, UniProt P19686+P20595)
# Construct: expressed in transfected cells
# Sequence (P20595 1-619): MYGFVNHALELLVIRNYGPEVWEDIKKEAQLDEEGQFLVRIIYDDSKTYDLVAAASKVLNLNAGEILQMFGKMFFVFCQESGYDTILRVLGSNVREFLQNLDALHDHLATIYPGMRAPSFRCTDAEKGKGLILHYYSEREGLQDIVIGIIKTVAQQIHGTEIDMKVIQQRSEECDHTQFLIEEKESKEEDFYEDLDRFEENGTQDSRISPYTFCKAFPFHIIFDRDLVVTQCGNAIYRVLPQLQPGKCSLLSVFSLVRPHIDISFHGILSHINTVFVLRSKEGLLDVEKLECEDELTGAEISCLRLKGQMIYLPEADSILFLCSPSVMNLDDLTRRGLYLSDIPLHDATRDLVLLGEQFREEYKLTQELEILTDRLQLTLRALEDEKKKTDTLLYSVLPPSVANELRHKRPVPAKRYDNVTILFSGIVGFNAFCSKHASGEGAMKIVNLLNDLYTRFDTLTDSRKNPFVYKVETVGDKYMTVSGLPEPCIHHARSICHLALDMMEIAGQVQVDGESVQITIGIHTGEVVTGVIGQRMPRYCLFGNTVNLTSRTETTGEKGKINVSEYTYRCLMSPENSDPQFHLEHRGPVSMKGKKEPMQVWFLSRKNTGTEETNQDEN
# Sequence (P19686 1-690): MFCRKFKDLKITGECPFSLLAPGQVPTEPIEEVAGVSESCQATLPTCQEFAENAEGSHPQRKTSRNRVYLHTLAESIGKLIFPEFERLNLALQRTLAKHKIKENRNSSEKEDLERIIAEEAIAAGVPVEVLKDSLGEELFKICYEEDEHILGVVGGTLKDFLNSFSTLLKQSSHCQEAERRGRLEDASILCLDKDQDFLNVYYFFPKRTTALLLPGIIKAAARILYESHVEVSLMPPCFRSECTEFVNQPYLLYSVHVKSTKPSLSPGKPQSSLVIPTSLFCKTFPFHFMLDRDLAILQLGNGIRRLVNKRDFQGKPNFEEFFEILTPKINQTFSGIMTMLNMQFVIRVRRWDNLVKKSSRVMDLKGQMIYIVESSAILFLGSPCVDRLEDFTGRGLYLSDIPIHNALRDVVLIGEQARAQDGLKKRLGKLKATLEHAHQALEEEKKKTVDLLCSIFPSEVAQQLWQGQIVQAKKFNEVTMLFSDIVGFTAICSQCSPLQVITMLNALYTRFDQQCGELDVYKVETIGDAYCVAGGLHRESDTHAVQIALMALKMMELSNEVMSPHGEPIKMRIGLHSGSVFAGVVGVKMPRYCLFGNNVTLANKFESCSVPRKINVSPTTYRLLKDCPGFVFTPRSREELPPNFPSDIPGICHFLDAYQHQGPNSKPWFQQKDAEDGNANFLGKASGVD
# method-description: Action on recombinant guanylate cyclase reporter cell line
# Format: cell-based
# condition-label: in some cases mean values obtained from individual determinations
Please respond with reported MEC (minimal effective concentration) for every item in the list.

Cc1nc2c(OCC3CCCCC3)cccn2c1C(=O)NC(C)CO (centres unmarked) [Example 84]: 0.3 µM
Cc1nc2c(OCc3c(F)cccc3F)cccn2c1C(=O)NC1(CO)CCCC1 [Example 31]: 1.0 µM
CC[C@H](CO)NC(=O)c1c(C)nc2c(OCc3cccc(F)c3F)cccn12 [Example 44]: 0.3 µM
COC(=O)[C@H](CO)NC(=O)c1c(C)nc2c(OCc3c(F)cccc3F)cccn12 [Example 164]: 0.2 µM
CCCC[C@H](CO)NC(=O)c1c(C)nc2c(OCc3cccc(Cl)c3Cl)cccn12 [Example 9]: 0.5 µM

Quick one: give me MEC (minimal effective concentration) for each item below, same order please.
1. Cc1cc(OCc2ncccc2F)c2nc(C)c(C(=O)NC(CCCC(F)(F)C(F)(F)F)C(C)(C)O)n2c1 (single isomer, unassigned; ent-8) [Example 191]
2. Cc1nc2c(OCc3ncccc3F)cccn2c1C(=O)NC(CCCC(F)(F)F)C(C)(C)O (racemic) [Example 179]
3. Cc1nc2c(OCc3c(F)cccc3F)cccn2c1C(=O)NC(c1ccc(F)cc1)C(C)(C)O (racemic) [Example 152]
4. Cc1nc2c(OCC3CCCCC3)cccn2c1C(=O)N[C@H]1CCC[C@@H]1O (racemic) [Example 71]
5. Cc1nc2c(OCc3c(F)cccc3F)cccn2c1C(=O)N[C@H]1c2ccccc2C[C@H]1O [Example 40]

Response:
1. 3 µM
2. 1 µM
3. 0.3 µM
4. 0.1 µM
5. 0.1 µM

Quick one: give me MEC (minimal effective concentration) for each item below, same order please.
1. Cc1nc2c(OCc3c(F)cccc3F)cccn2c1C(=O)NC(CO)CC(F)(F)F (racemic) [Example 113]
2. Cc1nc2c(OCc3c(F)cccc3F)cccn2c1C(=O)NC(C)(C)[C@H](C)O [Example 20]
3. Cc1nc2c(OCc3c(F)cccc3F)cccn2c1C(=O)N[C@@H](CO)CCCO [Example 130]
4. Cc1nc2c(OCc3ncccc3F)cccn2c1C(=O)NC(CCCC(F)(F)F)C(C)(C)O (single isomer, unassigned; ent-8) [Example 182]
5. Cc1nc2c(OCc3c(F)cccc3F)cccn2c1C(=O)NC(C)(C)CO [Example 34]
6. Cc1nc2c(OCc3c(F)cccc3F)cccn2c1C(=O)NC1(CO)CCC1 [Example 125]
7. CCCC[C@H](CO)NC(=O)c1c(C)nc2c(OCc3c(F)cccc3F)cc(N3CCOCC3)cn12 [Example 63]
8. Cc1nc2c(OCc3c(F)cccc3F)cccn2c1C(=O)NCCOCCO [Example 24]

Response:
0.03 µM
1.0 µM
1.0 µM
0.65 µM
0.3 µM
0.3 µM
3.0 µM
1.0 µM

Quick one: give me MEC (minimal effective concentration) for each item below, same order please.
1. Cc1nc2c(OCC3CCCCC3)cccn2c1C(=O)NC1CCCC1O (centres unmarked) [Example 83]
2. Cc1nc2c(OCc3c(F)cccc3F)cccn2c1C(=O)NCC(O)COc1ccc(F)cc1 (centres unmarked) [Example 136]
3. Cc1cc(OCc2ncccc2F)c2nc(C)c(C(=O)NC(CC(F)(F)F)C(C)(C)O)n2c1 (racemic) [Example 184]

Response:
0.3 µM
3.0 µM
1 µM

Quick one: give me MEC (minimal effective concentration) for each item below, same order please.
1. Cc1nc2c(OCc3c(F)cccc3F)cccn2c1C(=O)N[C@H](C)CO [Example 118]
2. Cc1nc2c(OCC3CCC3)cccn2c1C(=O)NCCC1(O)CCCC1 [Example 97]
3. [2H]C([2H])(Oc1cccn2c(C(=O)N[C@@H](CO)CCCC)c(C)nc12)c1c(F)cccc1F [Example 115]
4. Cc1cc(OCc2ncccc2F)c2nc(C)c(C(=O)NC(CCC(F)(F)C(F)(F)F)C(C)(C)O)n2c1 (racemic) [Example 186]

Response:
["0.3 µM", "1.0 µM", "0.01 µM", "1 µM"]

Query: Suppose we examine the compound Cc1nc2c(OCc3ncccc3F)cc(Cl)cn2c1C(=O)NC(CCC(F)(F)C(F)(F)F)C(C)(C)O (single isomer, unassigned; ent-6) [Example 194] ; what MEC (minimal effective concentration) value has been reported?
Response: 0.53 µM
